- tested_system: alpha2C adrenergic receptors (Homo sapiens)
- Construct: expressed in transfected cells; host or cells: NIH-3T3
- Sequence (P18825 whole entry): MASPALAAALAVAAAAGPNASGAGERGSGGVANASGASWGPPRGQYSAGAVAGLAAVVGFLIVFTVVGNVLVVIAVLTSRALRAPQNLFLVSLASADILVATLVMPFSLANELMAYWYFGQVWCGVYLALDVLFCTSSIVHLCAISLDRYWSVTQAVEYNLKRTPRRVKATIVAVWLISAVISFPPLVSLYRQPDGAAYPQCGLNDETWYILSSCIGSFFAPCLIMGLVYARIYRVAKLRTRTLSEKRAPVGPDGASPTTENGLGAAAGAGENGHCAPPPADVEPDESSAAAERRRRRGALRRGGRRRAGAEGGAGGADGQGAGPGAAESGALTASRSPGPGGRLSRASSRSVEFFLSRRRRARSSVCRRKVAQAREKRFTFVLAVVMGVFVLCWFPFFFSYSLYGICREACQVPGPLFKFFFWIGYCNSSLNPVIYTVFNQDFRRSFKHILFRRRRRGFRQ
- test_name: Receptor Selection and Amplification Technology (RSAT) assay, alpha2C
- Format: cell-based
- run_conditions: fraction of maximal effect of standard full agonist brimonidine (UK14304)
Binarize Alpha 2C intrinsic activity at 0.6; below is label 1, at or above is label 0.

molecule | class_name
Fc1cc(F)cc(C2=CCC[C@H]2Cc2c[nH]c(=S)[nH]2)c1 | label 1
S=c1[nH]cc(CC2C=CCCC2)[nH]1 (centres unmarked) | label 0
Fc1ccc(C2=CCCC2Cc2c[nH]c(=S)[nH]2)c(F)c1 (centres unmarked) | label 0
CC1=C(c2cc(F)cc(F)c2)C(Cc2c[nH]c(=S)[nH]2)CC1 (centres unmarked) | label 0
Cc1ccc2c(c1)CC(c1c[nH]c(=S)[nH]1)C2 (centres unmarked) | label 1
S=c1[nH]cc(CC2CCC=C2c2ccccc2)[nH]1 (centres unmarked) | label 0
Fc1ccc2c(c1)CCC2Cc1c[nH]c(=S)[nH]1 (centres unmarked) | label 1
S=c1[nH]cc(CC2CC=CC2)[nH]1 [drawing 24] | label 1
CCC1=C(c2ccc(F)cc2)C(Cc2c[nH]c(=S)[nH]2)CC1 (centres unmarked) | label 1
S=c1[nH]cc(CC2CCC3=C2CCCC3)[nH]1 (centres unmarked) | label 1
Cc1c(Cl)ccc2c1CC(c1c[nH]c(=S)[nH]1)C2 (centres unmarked) | label 1
C=CC1=CCCC1Cc1c[nH]c(=S)[nH]1 (centres unmarked) | label 1
S=c1[nH]cc(C2Cc3ccc(Cl)c(Cl)c3C2)[nH]1 (centres unmarked) | label 1
S=c1[nH]cc(C2CCc3ccccc3C2)[nH]1 (centres unmarked) | label 1
S=c1[nH]cc(C2Cc3cccc(Cl)c3C2)[nH]1 (centres unmarked) | label 0
CCC1=CC(Cc2c[nH]c(=S)[nH]2)CC1 (centres unmarked) | label 1
COc1ccc(C2=CCCC2Cc2c[nH]c(=S)[nH]2)cc1 (centres unmarked) | label 1
O=C1c2c(F)cccc2CCC1Cc1c[nH]c(=S)[nH]1 (centres unmarked) | label 1
CC=CC1=CCCC1Cc1c[nH]c(=S)[nH]1 (centres unmarked) | label 0
Fc1ccc(C2=CCCC2Cc2c[nH]c(=S)[nH]2)cc1F (centres unmarked) | label 0
S=c1[nH]cc(CC2CCCc3ccccc32)[nH]1 (centres unmarked) | label 1
CC1=C(c2ccc(F)cc2)C(Cc2c[nH]c(=S)[nH]2)CCC1 (centres unmarked) | label 0
Fc1ccc(C2=CCCC2Cc2c[nH]c(=S)[nH]2)cc1 (centres unmarked) | label 0
S=c1[nH]cc(C2Cc3cccc(Br)c3C2)[nH]1 (centres unmarked) | label 0
S=c1[nH]cc(C2Cc3cccc(I)c3C2)[nH]1 (centres unmarked) | label 1
S=c1[nH]cc(CC2CCc3cc(Br)ccc32)[nH]1 (centres unmarked) | label 0
CC1=C(c2ccc(C#N)cc2)C(Cc2c[nH]c(=S)[nH]2)CC1 (centres unmarked) | label 0
Fc1ccccc1C1=CCCC1Cc1c[nH]c(=S)[nH]1 (centres unmarked) | label 1
Fc1ccc(F)c(C2=CCCC2Cc2c[nH]c(=S)[nH]2)c1 (centres unmarked) | label 1
Cc1ccc(C)c2c1CC(c1c[nH]c(=S)[nH]1)C2 | label 0
CC1=CCCCC1Cc1c[nH]c(=S)[nH]1 (centres unmarked) | label 0
Fc1ccc2c(c1)C(Cc1c[nH]c(=S)[nH]1)CC2 (centres unmarked) | label 0
O=C1C2=C(CCC1Cc1c[nH]c(=S)[nH]1)NCCC2 (centres unmarked) | label 0
N#Cc1ccc(C2=CCCC2Cc2c[nH]c(=S)[nH]2)cc1 (centres unmarked) | label 0
Fc1cccc(C2=CCCC2Cc2c[nH]c(=S)[nH]2)c1 (centres unmarked) | label 1
Fc1cc2c(cc1F)C(Cc1c[nH]c(=S)[nH]1)CC2 (centres unmarked) | label 1
S=c1[nH]cc(CC2CCc3ccccc32)[nH]1 (centres unmarked) [drawing 16] | label 1
S=c1[nH]cc(CC2CCCc3cccnc32)[nH]1 (centres unmarked) | label 1
S=c1[nH]cc(CC2CCC=C2c2cccs2)[nH]1 (centres unmarked) | label 1
CC(C)CC1=CCCC1Cc1c[nH]c(=S)[nH]1 (centres unmarked) | label 0
CC1Cc2ccccc2C1Cc1c[nH]c(=S)[nH]1 (centres unmarked) | label 1
Fc1cc(F)cc(C2=CCC[C@@H]2Cc2c[nH]c(=S)[nH]2)c1 | label 0
O=C1c2c(CO)cccc2CCC1Cc1c[nH]c(=S)[nH]1 (centres unmarked) | label 1
S=c1[nH]cc(CC2CCC=C2c2ccc(Cl)s2)[nH]1 (centres unmarked) | label 0
S=c1[nH]cc(CC2CCC3=C2CCC3)[nH]1 (centres unmarked) [drawing 15] | label 1
S=c1[nH]cc(C2Cc3ccc(Br)cc3C2)[nH]1 (centres unmarked) | label 1
Fc1ccc(C2=C(C3CC3)CCC2Cc2c[nH]c(=S)[nH]2)cc1 (centres unmarked) | label 1
